# measurement.target: Pneumocystis carinii dihydrofolate reductase (Pneumocystis carinii, UniProt P16184)
# Sequence (P16184 1-206): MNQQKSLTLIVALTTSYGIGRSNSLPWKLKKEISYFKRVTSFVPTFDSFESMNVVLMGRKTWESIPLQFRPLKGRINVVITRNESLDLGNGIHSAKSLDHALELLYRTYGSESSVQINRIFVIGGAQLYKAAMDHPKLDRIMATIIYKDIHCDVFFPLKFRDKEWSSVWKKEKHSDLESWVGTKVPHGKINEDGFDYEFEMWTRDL
# test: biochemical
# Type: biochemical
# experimental.setup: DHFR inhibition (IC50 μM) P.carinii, expt 2 (replicate assays on different days)
measured.parameter: IC50 (µM)
Write the answer as a number in µM, unit excluded.

Q: State, in one line, measured IC50 of Nc1nc(N)c2nc(CN3c4ccccc4C=Cc4ccccc43)cnc2n1
Result: 0.18

Q: Hello, please tell me recorded IC50 for this one: Nc1nc(N)c2nc(CN3c4ccccc4CCc4ccccc43)cnc2n1
Result: 1

Entry source: patent US7056911B1
